# clearance annotations
Subject of test: Liver carboxylesterase 1 (Homo sapiens)
Sequence (P23141 whole entry): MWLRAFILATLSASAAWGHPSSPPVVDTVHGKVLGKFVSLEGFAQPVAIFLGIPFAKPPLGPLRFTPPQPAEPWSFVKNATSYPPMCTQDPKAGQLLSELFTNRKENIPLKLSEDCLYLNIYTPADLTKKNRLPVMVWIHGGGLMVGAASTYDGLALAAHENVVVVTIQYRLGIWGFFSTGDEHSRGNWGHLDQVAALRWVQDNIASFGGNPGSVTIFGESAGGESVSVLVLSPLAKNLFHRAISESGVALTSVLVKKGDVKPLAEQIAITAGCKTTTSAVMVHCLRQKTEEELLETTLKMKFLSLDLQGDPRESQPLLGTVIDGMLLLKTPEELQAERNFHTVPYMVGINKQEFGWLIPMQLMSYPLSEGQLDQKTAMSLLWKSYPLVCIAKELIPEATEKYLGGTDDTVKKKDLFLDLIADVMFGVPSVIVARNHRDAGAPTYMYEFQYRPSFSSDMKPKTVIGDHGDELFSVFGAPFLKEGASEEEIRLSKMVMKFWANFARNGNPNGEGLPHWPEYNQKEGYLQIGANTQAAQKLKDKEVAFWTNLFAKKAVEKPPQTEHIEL
Assay name: Prodrug activation assessed as human carboxylesterase 1b-mediated indomethacin formation by measuring intrinsic clearance per mg protein at 0.003125 to 0.10 mM after 30 to 180 mins by HPLC based Michaelis-Menten plot analysis
Assay conditions: isolated protein, 100 µM
Give the quantity in µL/min/mg, number only.

In [3]: df
Out[3]:
                      smiles_representation  obs_value
0  CCCCOC(=O)Cc1c(C)n(C(=O)c2ccc(Cl)cc2)c2ccc(OC)cc12        340
1  COc1ccc2c(c1)c(CC(=O)OCC(C)(C)C)c(C)n2C(=O)c1ccc(Cl)cc1         69
2  CC[C@H](OC(=O)Cc1c(C)n(C(=O)c2ccc(Cl)cc2)c2ccc(OC)cc12)c1ccccc1        0.3

Incoming: Specify clearance for CC[C@@H](OC(=O)Cc1c(C)n(C(=O)c2ccc(Cl)cc2)c2ccc(OC)cc12)c1ccccc1 and stop.
Outgoing: 7
